src = patent US8217035B2

Tested on: A2780 ovarian cancer cells
Test: Cellular proliferation in A2780 cells, Cell Titer Glo (Biological Method 4)
Format: cell-based
Conditions: Homo sapiens; ovarian cancer cell line A2780, Biological Method 4
pEC50: −log10 of the molar value.
Reported pEC50 values for a set of compounds

For orientation, consider the following solved cases.
| chemical smiles | pEC50 |
| --- | --- |
| Nc1cc(C(F)(F)F)c(-c2cc(Nc3ccc(-c4nn[nH]n4)nc3)nc(N3CCOCC3)n2)cn1 | > 4.60 |
| Nc1ccc(-c2cc(Nc3cc(C(F)(F)F)ccn3)nc(N3CCOCC3)n2)cn1 | > 4.60 |
| Nc1ccc(-c2cc(Nc3ccnc4c(C(F)(F)F)cccc34)nc(N3CCOCC3)n2)cn1 | > 5.00 |
| Nc1ncc(-c2cc(C(=O)Nc3ccncc3)nc(N3CCOCC3)n2)cn1 | > 5.00 |

Value (pEC50, A2780 ovarian cancer cells) for record CN1CCN(C(=O)c2cc(-c3cnc(N)nc3)nc(N3CCOCC3)n2)CC1 = > 5.00

Value (pEC50, A2780 ovarian cancer cells) for record N#Cc1cc(-c2cnc(N)nc2)nc(N2CCOCC2)n1 = > 5.00

Value (pEC50, A2780 ovarian cancer cells) for record Nc1cc(C(F)(F)F)c(-c2cc(Nc3cccc(CN4CCOCC4)c3)nc(N3CCOCC3)n2)cn1 = > 4.60

Value (pEC50, A2780 ovarian cancer cells) for record CCc1c(Nc2cnc3ccccc3c2)nc(N2CCOCC2)nc1-c1ccc(N)nc1 = > 6.00

====

System: A2780 ovarian cancer cells
Assay: Cellular proliferation in A2780 cells, Cell Titer Glo (Biological Method 4)
Assay type: cell-based
Settings: Homo sapiens; ovarian cancer cell line A2780, Biological Method 4
Reported EC50 values for a set of compounds

| compound | EC50 |
| --- | --- |
| Nc1cc(C(F)(F)F)c(-c2cc(N3CCOC(c4ccc(Cl)cc4)C3)nc(N3CCOCC3)n2)cn1 (stereo not drawn) | < 10 µM |
| CC(=O)N1CCc2ccc(Nc3cc(-c4ccc(N)nc4)nc(N4CCOCC4)n3)cc21 | < 10 µM |
| Nc1cc(C(F)(F)F)c(-c2cc(N3CCOC(C(=O)N4CCOCC4)C3)nc(N3CCOCC3)n2)cn1 (stereo not drawn) | < 25 µM |
| Nc1ccc(-c2cc(Nc3ccc(OC(CO)CO)nc3)nc(N3CCOCC3)n2)cn1 | < 25 µM |
| Nc1cc(C(F)(F)F)c(-c2cc(Nc3ccc(OC4CCOCC4)nc3)nc(N3CCOCC3)n2)cn1 | < 10 µM |
| COc1cncc(-c2cc(-c3ccc(N)nc3)nc(N3CCOCC3)n2)c1 | < 1 µM |
| CC(C)NC(=O)C1CN(c2cc(-c3cnc(N)cc3C(F)(F)F)nc(N3CCOCC3)n2)CCO1 (stereo not drawn) | < 25 µM |
| Nc1cc(C(F)(F)F)c(-c2cc(Nc3cccc(S(=O)(=O)CCO)c3)nc(N3CCOCC3)n2)cn1 | < 10 µM |

Per the record, Nc1cc(Cl)c(-c2cc(N3CCOC(c4ccccc4)C3)nc(N3CCOCC3)n2)cn1 (stereo not drawn) has EC50 of < 10 µM

Per the record, COc1ccccc1CCNc1cc(-c2ccc(N)nc2)nc(N2CCOCC2)n1 has EC50 of < 25 µM

Per the record, CN1CCC(C(=O)Nc2cc(-c3cnc(N)nc3)nc(N3CCOCC3)n2)CC1 has EC50 of < 10 µM

Per the record, Nc1ncc(-c2cc(Nc3cnccc3C(F)(F)F)nc(N3CCOCC3)n2)cn1 has EC50 of < 10 µM

Per the record, COc1cc2cc(Nc3cc(-c4ccc(N)nc4)nc(N4CCOCC4)n3)cnc2cc1OC has EC50 of < 1 µM

====

Test system: A2780 ovarian cancer cells
Experiment: Cellular proliferation in A2780 cells, Cell Titer Glo (Biological Method 4)
Format: cell-based
Settings: Homo sapiens; ovarian cancer cell line A2780, Biological Method 4
pEC50: −log10 of the molar value.
measurement type: pEC50

| compound | measurement type | observed |
| --- | --- | --- |
| Cc1c(-c2cnc(N)nc2)nc(N2CCOCC2)nc1-c1ccnc(Nc2ncc(-c3ccccc3)s2)c1 [Compound 215] | pEC50 | > 5.00 |
| Nc1cc(C(F)(F)F)c(-c2cc(N3CCC(O)CC3)nc(N3CCOCC3)n2)cn1 [Compound 323] | pEC50 | > 4.60 |
| Nc1cc(C(F)(F)F)c(-c2cc(N3CCOC(C(=O)NC4CCOCC4)C3)nc(N3CCOCC3)n2)cn1 (centres unmarked) [Compound 329] | pEC50 | > 4.60 |
| COc1cc(N)ncc1-c1cc(Nc2cnc3ccccc3c2)nc(N2CCOCC2)n1 [Compound 200] | pEC50 | > 6.00 |
| Nc1ccc(-c2cc(Cl)nc(N3CCOCC3)n2)cn1 [Compound 369] | pEC50 | > 4.60 |
| CS(=O)(=O)c1ccc(Nc2cc(-c3cnc(N)[nH]c3=O)nc(N3CCOCC3)n2)cn1 [Compound 208] | pEC50 | > 4.60 |
| CC(=O)c1ccccc1-c1cc(-c2ccc(N)nc2)nc(N2CCOCC2)n1 [Compound 255] | pEC50 | > 4.60 |

Per the record, COc1ccc(CCNc2cc(-c3ccc(N)nc3)nc(N3CCOCC3)n2)cc1 [Compound 302] has pEC50 of > 4.60

====

Test system: A2780 ovarian cancer cells
Assay: Cellular proliferation in A2780 cells, Cell Titer Glo (Biological Method 4)
Format: cell-based
Conditions: Homo sapiens; ovarian cancer cell line A2780
pEC50: −log10 of the molar value.
measurement type: pEC50

For orientation, consider the following solved cases.
| chemical smiles | observed |
| --- | --- |
| Nc1ncc(-c2ccnc(N3CCOCC3)n2)c(N)n1 | > 4.60 |
| Cc1nc(N)ncc1-c1cc(Nc2cnc3ccccc3c2)nc(N2CCOCC2)n1 | > 6.00 |
| CN(c1cc(-c2cnc(N)nc2)nc(N2CCOCC2)n1)C1CCOCC1 | > 5.00 |
| Cc1c(Nc2ncc(C#N)s2)nc(N2CCOCC2)nc1-c1cnc(N)nc1 | > 6.00 |
| Nc1ccc(-c2cc(Oc3cccnc3)nc(N3CCOCC3)n2)cn1 | > 5.00 |
| Nc1cc(C(F)(F)F)c(-c2cc(Nc3ccncc3C(F)(F)F)nc(N3CCOCC3)n2)cn1 | > 6.00 |
| CS(=O)(=O)Nc1ncccc1-c1cc(-c2cnc(N)cc2C(F)(F)F)nc(N2CCOCC2)n1 | > 5.00 |
| NC(=O)c1ccc(Nc2cc(-c3ccc(N)nc3)nc(N3CCOCC3)n2)cc1 | > 5.00 |
| CS(=O)(=O)c1ccccc1Nc1cc(-c2ccc(N)nc2)nc(N2CCOCC2)n1 | > 5.00 |
| Nc1cc(C(F)(F)F)c(-c2cc(N3CCCCC3=O)nc(N3CCOCC3)n2)cn1 | > 6.00 |

Per the record, CC(C)N1CCC(Oc2ccc(Nc3cc(-c4cnc(N)nc4C(F)(F)F)nc(N4CCOCC4)n3)cn2)CC1 has pEC50 of > 6.00

Per the record, Nc1ncc(-c2cc(OC3CCN(C(=O)c4ccccc4)CC3)nc(N3CCOCC3)n2)c(=O)[nH]1 has pEC50 of > 6.00

Per the record, Nc1ccc(-c2cc(Nc3ccccc3N3CCOCC3)nc(N3CCOCC3)n2)cn1 has pEC50 of > 5.00

Per the record, Nc1ccc(-c2cc(Nc3ccc4ncccc4c3)nc(N3CCOCC3)n2)cn1 has pEC50 of > 6.00

Per the record, Cc1cnc(N2CCOCC2)nc1-c1cnc(N)nc1 has pEC50 of > 5.00

Per the record, Nc1ccc(-c2cc(Nc3ccc4ccccc4n3)nc(N3CCOCC3)n2)cn1 has pEC50 of > 5.00

====

Reported EC50 values for a set of compounds
Tested on: A2780 ovarian cancer cells
Experiment: Cellular proliferation in A2780 cells, Cell Titer Glo (Biological Method 4)
Type: cell-based
Settings: Homo sapiens; ovarian cancer cell line A2780

| compound | EC50 |
| --- | --- |
| COC(=O)c1cnc(N2CCOCC2)nc1-c1cnc(N)nc1 [Compound 431] | < 25 µM |
| Nc1ncc(-c2cc(Nc3cnc4ccccc4c3)nc(N3CCOCC3)n2)cn1 [Compound 1] | < 1 µM |
| CCc1c(Nc2cnc3ccccc3c2)nc(N2CCOCC2)nc1-c1cnc(N)nc1 [Compound 98] | < 1 µM |
| CN1CCC(Oc2ccc(Nc3cc(-c4cnc(N)cc4C(F)(F)F)nc(N4CCOCC4)n3)cn2)CC1 [Compound 116] | < 10 µM |
| Nc1ncc(-c2cc(O[C@H]3CCCN(C(=O)c4ccc(F)cc4)C3)nc(N3CCOCC3)n2)c(N)n1 [Compound 528] | < 10 µM |
| CC(=O)N1CCC(Oc2cc(-c3cnc(N)nc3C(F)(F)F)nc(N3CCOCC3)n2)CC1 [Compound 119] | < 1 µM |
| CS(=O)(=O)c1ccc2cc(Nc3cc(-c4ccc(N)nc4)nc(N4CCOCC4)n3)cnc2c1 [Compound 149] | < 10 µM |
| Nc1ncc(-c2cc(Nc3ccc4ncccc4c3)nc(N3CCOCC3)n2)cn1 [Compound 46] | < 1 µM |

Per the record, CS(=O)(=O)c1cccc(-c2cc(-c3cnc(N)cc3Cl)nc(N3CCOCC3)n2)c1 [Compound 165] has EC50 of < 1 µM

Per the record, COc1cc(Nc2cc(-c3cnc(N)cc3C(F)(F)F)nc(N3CCOCC3)n2)ccc1OC1CCN(C(C)C)CC1 [Compound 553] has EC50 of < 1 µM

Per the record, CS(=O)(=O)c1cccc(-c2cc(-c3cnc(N)cc3C(F)(F)F)nc(N3CCOCC3)n2)c1 [Compound 95] has EC50 of < 1 µM

Per the record, Nc1ncc(-c2cc(Nc3ccc4cn[nH]c4c3)nc(N3CCOCC3)n2)cn1 [Compound 135] has EC50 of < 1 µM

Per the record, COC(=O)N1CCC(Oc2cc(-c3cnc(N)nc3C(F)(F)F)nc(N3CCOCC3)n2)CC1 [Compound 70] has EC50 of < 1 µM
